The measurements presented in this section are drawn from patent US20230113037A1.

- system.under.test: AHR (Homo sapiens)
- Construct: U87 MG glioblastoma cells (ATCC #HTB-14) endogenously expressing AHR; endogenous in cells; host or cells: U87 MG glioblastoma cells (ATCC #HTB-14)
- Sequence (P35869 11-848): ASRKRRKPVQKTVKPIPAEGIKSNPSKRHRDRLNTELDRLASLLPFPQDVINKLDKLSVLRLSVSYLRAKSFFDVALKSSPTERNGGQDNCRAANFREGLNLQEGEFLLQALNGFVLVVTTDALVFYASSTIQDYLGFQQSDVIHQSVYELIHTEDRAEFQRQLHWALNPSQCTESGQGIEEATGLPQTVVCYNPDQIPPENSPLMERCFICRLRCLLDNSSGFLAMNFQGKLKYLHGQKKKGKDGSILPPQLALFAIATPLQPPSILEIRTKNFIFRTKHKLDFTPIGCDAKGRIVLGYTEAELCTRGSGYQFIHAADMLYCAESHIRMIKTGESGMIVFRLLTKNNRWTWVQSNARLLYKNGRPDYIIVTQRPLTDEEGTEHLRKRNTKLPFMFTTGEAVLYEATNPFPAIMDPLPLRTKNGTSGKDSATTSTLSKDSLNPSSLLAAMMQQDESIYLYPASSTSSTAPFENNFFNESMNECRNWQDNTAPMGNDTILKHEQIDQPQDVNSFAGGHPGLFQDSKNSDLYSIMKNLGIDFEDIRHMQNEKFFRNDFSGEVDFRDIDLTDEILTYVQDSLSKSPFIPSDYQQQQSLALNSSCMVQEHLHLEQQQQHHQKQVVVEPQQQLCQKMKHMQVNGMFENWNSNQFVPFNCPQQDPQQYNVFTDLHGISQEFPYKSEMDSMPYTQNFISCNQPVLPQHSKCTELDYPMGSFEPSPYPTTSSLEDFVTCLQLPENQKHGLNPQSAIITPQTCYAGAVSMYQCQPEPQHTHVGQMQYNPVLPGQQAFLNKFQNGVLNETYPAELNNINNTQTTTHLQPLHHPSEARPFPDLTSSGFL
- protocol.text: In vitro assay 1: antagonism in human cell line (AHR transactivation, firefly luciferase reporter, kynurenic acid prestimulated)
- Assay type: cell-based
- condition.description: AHR Antagonism Human IC50 [M], firefly luciferase reporter
quantity.measured: IC50 (M)

a: COc1ccc(-c2nc3c4cccc(Br)c4nc(N[C@H](C)C(=O)N4CC5(CN(C(=O)OC(C)(C)C)C5)C4)n3n2)cc1
b: Cc1c(-c2nc3c4cccc(Br)c4nc(N[C@@H]4CNCCNC4=O)n3n2)cnn1C
Q: Hi there, can you help? I need to know whether a or b has lower measured IC50. Indicate which entry you chose by stating its label.
Result: a
(a: 7.45e-09 M, b: 2.13e-08 M)

a: CNCCNC(=O)[C@@H](C)Nc1nc2c(Br)cccc2c2nc(-c3ccc(OC)cc3)nn12
b: COc1ccc(-c2nc3c4cccc(Br)c4nc(N[C@H](C)C(=O)NCC(C)(C)N)n3n2)cc1
c: C[C@H]1CN(C(=O)[C@@H](C)Nc2nc3c(Br)cccc3c3nc(-c4cnn(C)c4)nn23)CCO1
d: CCCNC(=O)[C@@H](C)Nc1nc2c(Br)cccc2c2nc(-c3cnn(C)c3)nn12
Q: Highest IC50 first, then in falling order down to the smallest. Note for the reader: the ranking is given by listing the labels in the order requested.
Result: b, c, d, a
(b: 4.3e-08 M, c: 2.87e-08 M, d: 1.37e-08 M, a: 8.61e-09 M)

A: C[C@@H](Nc1nc2c(Br)cccc2c2nc(-c3cnn(C)c3)nn12)C(=O)N1CCNCC1
B: COc1ccc(-c2nc3c4cccc(Br)c4nc(N[C@H](C)C(=O)N4CCN(C)CC4)n3n2)cc1
Q: Dear colleague, could you let me know whether A or B has the lower recorded IC50? Thanks. Could you answer with the label of the item you picked?
Result: B

----------
- system.under.test: AHR (Mus musculus, UniProt P30561)
- Sequence (P30561 1-848 P471L/N533S/M589L): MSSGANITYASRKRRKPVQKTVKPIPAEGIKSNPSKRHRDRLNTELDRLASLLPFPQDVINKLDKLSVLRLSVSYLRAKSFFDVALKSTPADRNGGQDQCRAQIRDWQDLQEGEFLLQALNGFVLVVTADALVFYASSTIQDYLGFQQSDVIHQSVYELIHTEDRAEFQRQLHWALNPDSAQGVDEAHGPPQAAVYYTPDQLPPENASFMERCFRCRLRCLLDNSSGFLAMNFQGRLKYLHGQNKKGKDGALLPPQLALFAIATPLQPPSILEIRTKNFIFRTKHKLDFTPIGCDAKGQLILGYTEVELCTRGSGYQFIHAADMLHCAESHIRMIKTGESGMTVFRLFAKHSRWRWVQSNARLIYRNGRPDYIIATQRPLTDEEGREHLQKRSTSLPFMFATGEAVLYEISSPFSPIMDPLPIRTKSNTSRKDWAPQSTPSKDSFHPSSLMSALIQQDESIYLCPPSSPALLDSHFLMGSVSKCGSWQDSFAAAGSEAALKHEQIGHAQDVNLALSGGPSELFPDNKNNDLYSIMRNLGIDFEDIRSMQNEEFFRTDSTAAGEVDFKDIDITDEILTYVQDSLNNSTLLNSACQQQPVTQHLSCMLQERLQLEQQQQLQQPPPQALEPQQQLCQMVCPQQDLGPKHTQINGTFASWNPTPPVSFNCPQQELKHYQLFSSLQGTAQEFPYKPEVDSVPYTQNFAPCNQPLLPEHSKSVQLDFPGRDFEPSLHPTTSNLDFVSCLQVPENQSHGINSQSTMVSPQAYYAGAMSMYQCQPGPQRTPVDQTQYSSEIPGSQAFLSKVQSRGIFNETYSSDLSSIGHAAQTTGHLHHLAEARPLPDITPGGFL
- protocol.text: In vitro assay 3: antagonism in mouse cell line (AHR transactivation, firefly luciferase reporter, kynurenic acid prestimulated)
- Type: cell-based
- condition.description: mouse Hepa 1c1c7 cells, 200 μM kynurenic acid, 20 hours, read-out: AHR Antagonism Mouse IC50
pIC50: −log10 of the molar value.
quantity.measured: pIC50

Study these solved cases before continuing.
>  <smi>
COc1ccc(-c2nc3c4cc(C(F)(F)F)ccc4nc(N[C@@H]4CNCCNC4=O)n3n2)cc1

>  <quantity.measured>
pIC50

>  <reported>
5.06

$$$$
>  <smi>
O=C1NCCC[C@H]1Nc1nc2c(Br)cccc2c2nc(-c3ccc(F)cc3)nn12

>  <quantity.measured>
pIC50

>  <reported>
8.82

$$$$

1: CN1CCCC[C@@H](Nc2nc3c(C(F)(F)F)cccc3c3nc(-c4cnn(C)c4)nn23)C1=O
2: COc1cccc(-c2nc3c4ccccc4nc(N[C@H]4CCCCNC4=O)n3n2)c1
Q: For the pair 1 and 2 , which entry has the numerically smaller recorded pIC50? Please respond with the label that marks your chosen entry.
Result: 2
(2: 8.34, 1: 8.85)
